Tested on: Human alphaherpesvirus 1
Test: Cumulative mortality in percent of HSV-1 infected mice, after intraperitoneal administration of 1 mg/kg of compound
Type: functional
CMP reference
Could you respond with only the numeric value?

COC(=O)P(=O)(O)OC[C@H]1O[C@@H](n2cc(CCCl)c(=O)[nH]c2=O)C[C@@H]1O ... 58
O=C(CP(=O)(O)O)OC[C@H]1O[C@@H](n2cc(CCCl)c(=O)[nH]c2=O)C[C@@H]1O ... 33
CCOC(=O)P(=O)(OC)OC[C@H]1O[C@@H](n2cc(CCCl)c(=O)[nH]c2=O)C[C@@H]1O (some centres undefined) ... 42

Kindly review the next compound as well.
For the compound CCOC(=O)P(=O)(Nc1ccccc1)OC[C@H]1O[C@@H](n2cc(CCCl)c(=O)[nH]c2=O)C[C@@H]1O (some centres undefined) , what CMP is on record?
67

----------
Test system: Human alphaherpesvirus 1
Assay: Cumulative mortality in percent of HSV-1 infected mice, after intraperitoneal administration of 1 mg/kg of compound
Assay type: functional
attribute-measured: CMP
Could you respond with only the numeric value?

CCOC(=O)CP(=O)(OC)OC[C@H]1O[C@@H](n2cc(CCCl)c(=O)[nH]c2=O)C[C@@H]1O (some centres undefined) ... 92
COP(=O)(CC(=O)OC[C@H]1O[C@@H](n2cc(CCCl)c(=O)[nH]c2=O)C[C@@H]1O)OC ... 75
CCOC(=O)P(=O)(O)O[C@H]1C[C@H](n2cc(CCCl)c(=O)[nH]c2=O)O[C@@H]1CO ... 42

For the compound O=C(OCc1ccccc1)P(=O)(O)OC[C@H]1O[C@@H](n2cc(CCCl)c(=O)[nH]c2=O)C[C@@H]1O , what CMP is on record?
33

----------
CMP reference
Tested on: Human alphaherpesvirus 1
Assay: Cumulative mortality in percent of HSV-1 infected mice, after intraperitoneal administration of 0.5 mg/kg of compound
Type: functional
Could you respond with only the numeric value?

The following molecules have reported results that may help.
CCOC(=O)P(=O)(O)OC[C@H]1O[C@@H](n2cc(CCCl)c(=O)[nH]c2=O)C[C@@H]1O ... 58
COP(=O)(CC(=O)OC[C@H]1O[C@@H](n2cc(CCCl)c(=O)[nH]c2=O)C[C@@H]1O)OC ... 67
O=c1[nH]c(=O)n([C@H]2C[C@H](O)[C@@H](CO)O2)cc1CCCl ... 35

For the molecule O=C(OCc1ccccc1)P(=O)(O)OC[C@H]1O[C@@H](n2cc(CCCl)c(=O)[nH]c2=O)C[C@@H]1O , what CMP is on record?
67

For the molecule CCOC(=O)P(=O)(O)O[C@H]1C[C@H](n2cc(CCCl)c(=O)[nH]c2=O)O[C@@H]1CO , what CMP is on record?
83

----------
Tested on: Mus musculus
Assay: Mean duration of lesions in HSV-1 infected mice, after administration of 0.1 % of compound intracutaneously
Format: functional
MDL reference
Enter your answer as a number in days; do not include the unit.

The following molecules have reported results that may help.
CCOC(=O)P(=O)(O)O[C@H]1C[C@H](n2cc(CCCl)c(=O)[nH]c2=O)O[C@@H]1CO ... 9.7
CCOC(=O)CP(=O)(O)O[C@H]1C[C@H](n2cc(CCCl)c(=O)[nH]c2=O)O[C@@H]1CO ... 9.4
O=C(O)CP(=O)(O)OC[C@H]1O[C@@H](n2cc(CCCl)c(=O)[nH]c2=O)C[C@@H]1O ... 5.3

Kindly review the next molecule as well.
For the molecule CCOC(=O)P(=O)(OC)OC[C@H]1O[C@@H](n2cc(CCCl)c(=O)[nH]c2=O)C[C@@H]1O (stereo partly drawn) , what MDL is on record?
3.3

----------
System: Human alphaherpesvirus 1
Assay: Cumulative mortality in percent of HSV-1 infected mice, after intraperitoneal administration of 1 mg/kg of compound
Assay type: functional
CMP reference
Could you respond with only the numeric value?

CC(C)(C)OC(=O)CP(=O)(O)OC[C@H]1O[C@@H](n2cc(CCCl)c(=O)[nH]c2=O)C[C@@H]1O ... 67
O=C(O)CP(=O)(O)OC[C@H]1O[C@@H](n2cc(CCCl)c(=O)[nH]c2=O)C[C@@H]1O ... 58
CCOC(=O)CP(=O)(O)OC[C@H]1O[C@@H](n2cc(CCCl)c(=O)[nH]c2=O)C[C@@H]1O ... 83

For the compound CCOC(=O)P(=O)(O)OC[C@H]1O[C@@H](n2cc(CCCl)c(=O)[nH]c2=O)C[C@@H]1O , what CMP is on record?
33

----------
Test system: Human alphaherpesvirus 1
Assay: Cumulative mortality in percent of HSV-1 infected mice, after peroral administration of 10 mg/kg of compound
Assay type: functional
Conditions: route oral
attribute-measured: CMP
Could you respond with only the numeric value?

For the compound COP(=O)(CC(=O)OC[C@H]1O[C@@H](n2cc(CCCl)c(=O)[nH]c2=O)C[C@@H]1O)OC , what CMP is on record?
75

For the compound CCOC(=O)P(=O)(O)OC[C@H]1O[C@@H](n2cc(CCCl)c(=O)[nH]c2=O)C[C@@H]1O , what CMP is on record?
50

For the compound CCOC(=O)CP(=O)(OC)OC[C@H]1O[C@@H](n2cc(CCCl)c(=O)[nH]c2=O)C[C@@H]1O (some centres not stated) , what CMP is on record?
67

For the compound O=C(CP(=O)(O)O)OC[C@H]1O[C@@H](n2cc(CCCl)c(=O)[nH]c2=O)C[C@@H]1O , what CMP is on record?
42

For the compound CCOC(=O)P(=O)(Nc1ccccc1)OC[C@H]1O[C@@H](n2cc(CCCl)c(=O)[nH]c2=O)C[C@@H]1O (some centres not stated) , what CMP is on record?
25

For the compound CCOC(=O)P(=O)(O)O[C@H]1C[C@H](n2cc(CCCl)c(=O)[nH]c2=O)O[C@@H]1CO , what CMP is on record?
75

For the compound COC(=O)P(=O)(O)OC[C@H]1O[C@@H](n2cc(CCCl)c(=O)[nH]c2=O)C[C@@H]1O , what CMP is on record?
75

----------
Tested on: Human alphaherpesvirus 1
Test: Cumulative mortality in percent of HSV-1 infected mice, after intraperitoneal administration of 0.5 mg/kg of compound
Type: functional
# if measured CMP < 70: true  # else: false

O=C(O)CP(=O)(O)OC[C@H]1O[C@@H](n2cc(CCCl)c(=O)[nH]c2=O)C[C@@H]1O ... true
CCOC(=O)CP(=O)(OC)OC[C@H]1O[C@@H](n2cc(CCCl)c(=O)[nH]c2=O)C[C@@H]1O (stereo partly drawn) ... true

Decide: CMP of O=C(CP(=O)(O)O)OC[C@H]1O[C@@H](n2cc(CCCl)c(=O)[nH]c2=O)C[C@@H]1O strictly below 70?
false

Decide: CMP of CCOC(=O)P(=O)(OC)OC[C@H]1O[C@@H](n2cc(CCCl)c(=O)[nH]c2=O)C[C@@H]1O (stereo partly drawn) strictly below 70?
true

Decide: CMP of CCOC(=O)CP(=O)(O)OC[C@H]1O[C@@H](n2cc(CCCl)c(=O)[nH]c2=O)C[C@@H]1O strictly below 70?
false

Decide: CMP of CC(C)(C)OC(=O)CP(=O)(O)OC[C@H]1O[C@@H](n2cc(CCCl)c(=O)[nH]c2=O)C[C@@H]1O strictly below 70?
true

Decide: CMP of COC(=O)P(=O)(O)OC[C@H]1O[C@@H](n2cc(CCCl)c(=O)[nH]c2=O)C[C@@H]1O strictly below 70?
false

Decide: CMP of CCOC(=O)P(=O)(Nc1ccccc1)OC[C@H]1O[C@@H](n2cc(CCCl)c(=O)[nH]c2=O)C[C@@H]1O (stereo partly drawn) strictly below 70?
false

----------
System: Human alphaherpesvirus 1
Test: Minimum inhibitory concentration causing 50% inhibition of cytopathic effect induced by HSV-1 in PRK cells
Assay type: functional
# if measured MIC < 40 µM: true  # else: false

O=C(O)P(=O)(O)O [FOSCARNET] ... false

Decide: MIC of CCOC(=O)P(=O)(O)OC[C@H]1O[C@@H](n2cc(/C=C\Br)c(=O)[nH]c2=O)C[C@@H]1O strictly below 40 µM?
true

Decide: MIC of COC(=O)P(=O)(O)OC[C@H]1O[C@@H](n2cc(/C=C\Br)c(=O)[nH]c2=O)C[C@@H]1O strictly below 40 µM?
true

Decide: MIC of CCOC(=O)CP(=O)(O)OC[C@H]1O[C@@H](n2cc(/C=C/Br)c(=O)[nH]c2=O)C[C@@H]1O strictly below 40 µM?
false

Decide: MIC of O=c1[nH]c(=O)n([C@H]2C[C@H](O)[C@@H](CO)O2)cc1/C=C/Br [BRIVUDINE] strictly below 40 µM?
true
